- assay.system: T1, natriuretic peptide receptor-B (human)
- T1 chain: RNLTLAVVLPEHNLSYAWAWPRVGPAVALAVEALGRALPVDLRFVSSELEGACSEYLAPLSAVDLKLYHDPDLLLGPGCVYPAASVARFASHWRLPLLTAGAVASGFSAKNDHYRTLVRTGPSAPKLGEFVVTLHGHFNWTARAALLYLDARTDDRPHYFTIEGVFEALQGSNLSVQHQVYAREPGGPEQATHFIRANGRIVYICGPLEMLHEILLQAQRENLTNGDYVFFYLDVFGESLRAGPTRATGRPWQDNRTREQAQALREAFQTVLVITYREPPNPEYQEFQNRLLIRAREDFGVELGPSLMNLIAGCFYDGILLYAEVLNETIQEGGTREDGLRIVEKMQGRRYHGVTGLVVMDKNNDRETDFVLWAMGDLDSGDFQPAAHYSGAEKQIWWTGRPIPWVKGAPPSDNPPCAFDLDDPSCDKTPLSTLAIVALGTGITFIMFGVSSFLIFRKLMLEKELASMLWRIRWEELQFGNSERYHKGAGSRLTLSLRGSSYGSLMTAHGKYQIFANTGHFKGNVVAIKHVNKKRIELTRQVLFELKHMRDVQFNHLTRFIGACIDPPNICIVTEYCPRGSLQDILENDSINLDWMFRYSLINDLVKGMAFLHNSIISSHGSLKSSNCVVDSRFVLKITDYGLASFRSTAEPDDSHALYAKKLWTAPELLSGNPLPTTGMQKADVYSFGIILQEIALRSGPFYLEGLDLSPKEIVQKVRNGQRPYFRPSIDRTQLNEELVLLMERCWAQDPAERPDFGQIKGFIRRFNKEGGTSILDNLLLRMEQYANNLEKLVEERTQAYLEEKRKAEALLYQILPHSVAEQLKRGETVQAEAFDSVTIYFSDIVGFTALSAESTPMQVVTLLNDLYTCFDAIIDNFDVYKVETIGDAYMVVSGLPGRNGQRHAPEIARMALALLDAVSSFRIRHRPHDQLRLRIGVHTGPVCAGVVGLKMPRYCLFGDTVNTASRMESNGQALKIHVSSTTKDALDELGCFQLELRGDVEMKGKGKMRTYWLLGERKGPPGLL
- experiment.description: cell-based or functional assay
Numbered stars: 1 amine (or outer) side, 2 acyl side, 3 side chain; on linkers, the order of the positions; unused ones are H or OH. Square brackets hold non-standard residues; d marks the D form. Ends that are not written are not given here. * marks the point of attachment. Apc(Ae) = 4-amino-1-(2-amino-ethyl)-piperidine-4-carboxylic acid, O=C(C1(N[*:1])CCN(CCN[*:3])CC1)[*:2]; Apc(Me) = 4-amino-1-methyl-piperidine-4-carboxylic acid, CN1CCC(N[*:1])(C(=O)[*:2])CC1; Sni = (S)-nipecotic acid, O=C([C@H]1CCCN([*:1])C1)[*:2]; Pro(trans-4-Ph) = O=C(O)[C@@H]1C[C@@H](c2ccccc2)CN1; Pentanoyl(5-Ph) = O=C(CCCCc1ccccc1)*; Butanoyl(4-Ph) = O=C(CCCc1ccccc1)*; dDap(Me2) = CN(C)C[C@@H](N)C(=O)O; Hyp = O=C(O)[C@@H]1C[C@@H](O)CN1; NMeF = CN[C@@H](Cc1ccccc1)C(=O)O; NMeL = CN[C@@H](CC(C)C)C(=O)O; AR‑201‑62 = not defined here; NMeK = CN[C@@H](CCCCN)C(=O)O; Octanoyl = CCCCCCCC(=O)*; Occ = octanoic acid
The following binders are shown together with reported EC50 group, cGMP in GTM-3 cells values.
readout.label: EC50 group, cGMP in GTM-3 cells

{"columns": ["binder", "result"],
 "data": [
  ["{Pentanoyl(5-Ph)}-[dP]FGLKLDRI-NH2 [JAL-0696]", "≤ 15 µM"],
  ["Octanoyl-[dA]F[Apc(Ae)]A[dE]L[Hyp][NMeL]DRI-NH2 [JAL-1408]", "≤ 5 µM"],
  ["[Occ]AFGLPLSRI-NH2 (not fully specified (residue 2); printed as Occ-ala-Phe-Gly-Leu-Pro-Leu-Ser-Arg-Ile-NH2) [JAL-0992]", "≤ 15 µM"],
  ["Octanoyl-XF[dR]L[Hyp]LDRI-NH2 (not fully specified (some residues); printed as Oct-pip-Phe-arg-Leu-Hyp-Leu-Asp-Arg-Ile-NH2) [JAL-1157_02]", "≤ 15 µM"],
  ["{Butanoyl(4-Ph)}-[Sni]F[dL]L[Hyp][NMeL]DRI-NH2 [JAL-1605]", "≤ 1 µM"],
  ["[Occ][Sni][NMeF][dDap(Me2)]L[Hyp][NMeL]DRI-NH2 [JAL-1579]", "≤ 1 µM"],
  ["Octanoyl-AFRL[NMeK][NMeL]DRI-NH2 (not fully specified (some residues); printed as Occ-ala-Phe-arg-Leu-Nmk-Nml-Asp-Arg-Ile-NH2) [JAL-1229]", "≤ 5 µM"],
  ["[AR‑201‑62]F[dL]L[Hyp][NMeL]DRI-NH2 (reading uncertain; also: printed as (AR-201-62)-Phe-leu-Leu-Hyp-Nml-Asp-Arg-Ile-NH2) [JAL-1374]", "≤ 5 µM"],
  ["Octanoyl-[dA]F[dL]L[Hyp][NMeL]D[Pro(trans-4-Ph)]I-NH2 [JAL-1456]", "≤ 15 µM"],
  ["Octanoyl-[dA]F[Apc(Me)]M[dE]L[Hyp][NMeL]DRI-NH2 [JAL-1406]", "≤ 1 µM"]
]}
